- system: human GLP-1 receptor (human, UniProt P43220 24-463)
- procedure_details: cell-based or functional assay
Starred links: 1 amine or outer side, 2 acyl side, 3 side chain; linkers in the order of their positions; H or OH if unused. Non-standard residues stand in square brackets, D forms with d. Groups on a side chain read outwards from the residue. *: point of attachment. C20 diacid = O=C(O)CCCCCCCCCCCCCCCCCCC(=O)*; C18 diacid = O=C(O)CCCCCCCCCCCCCCCCC(=O)*; C16 diacid = O=C(O)CCCCCCCCCCCCCCC(=O)*; γGlu = O=C(O)[C@H](CCC(=O)[*:2])N[*:1]; Trx = NC[C@H]1CC[C@H](C(=O)O)CC1; AEEA = NCCOCCOCC(=O)O; Aib = CC(C)(N)C(=O)O
Kind request: treat 7 pM as inclusive, so Human GLP-1R potency [EC50 (pM)] at 7 pM or higher is yes (1), anything lower is no (0).

Compound 0415 (peptide) peptide: H[Aib]EGTFTSDVSSYLEEK([AEEA-AEEA-γGlu-Trx-C20 diacid])AAREFIEWLVRGRGEASELSTAALGRLSAELHELATLPRTETGSGSP-NH2 :: yes (1)

Quick check: does Compound 0662 (peptide) peptide: H[Aib]EGTFTSDVSSYLEEQAAREFIAWLVRGRK([AEEA-AEEA-AEEA-AEEA-γGlu-C18 diacid])GGGGEASELSTAALGRLSAELHELATLPRTETGSGSP-NH2 have Human GLP-1R potency [EC50 (pM)] greater than or equal to 7 pM? no (0)

State whether the measured Human GLP-1R potency [EC50 (pM)] reaches 7 pM, counting equality as reaching it, for Compound 0285 (peptide) peptide: H[Aib]EGTFTSDVSSYLEEQAAREFIAWLVRGK([AEEA-AEEA-γGlu-C16 diacid])GGGGGEASELSTAALGRLSAELHELATLPRTETGK([AEEA-AEEA-γGlu-C16 diacid])GSP-NH2 yes (1)

Decide: is the reported value of Human GLP-1R potency [EC50 (pM)] for Compound 0564 (also: Lys on Ado carries two C16 diacid-gGlu-Ado-Ado groups, on its alpha and epsilon amines) peptide: H[Aib]EGTFTSDVSK([AEEA-Lys])YLEEQAAREFIAWLVRGRGGGGGEASELSTAALGRLSAELHELATLPRTETGSGSP-NH2 equal to or greater than 7 pM? yes (1)

Is reported Human GLP-1R potency [EC50 (pM)] greater than or equal to 7 pM here: Compound 0179 (peptide) peptide: H[Aib]EGTFTSDVSSYLEEQAAREFIEWLVRGRK([AEEA-AEEA-γGlu-Trx-C20 diacid])EAEAEASELSTAALGRLSAELHELATLPRTETGSGSP-NH2 yes (1)

Has Compound 0511 (peptide) peptide: H[Aib]EGTFTSDVSRYLEEQAAREFIEWLVRGRK([AEEA-AEEA-γGlu-Trx-C20 diacid])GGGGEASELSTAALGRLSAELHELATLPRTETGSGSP-NH2 a recorded Human GLP-1R potency [EC50 (pM)] greater than or equal to 7 pM? yes (1)

Has Compound 0074 (peptide) peptide: H[Aib]EGTFTSDVSSYLEEQAARK([AEEA-AEEA-γGlu-C16 diacid])FIAWLVRGRGGK([AEEA-AEEA-γGlu-C16 diacid])EASELSTAALGRLSAELHELATLPRTETGSGSP-NH2 a recorded Human GLP-1R potency [EC50 (pM)] greater than or equal to 7 pM? no (0)

Quick check: does Compound 0089 (peptide) peptide: H[Aib]EGTFTSDVSSYLEEQAARK([AEEA-AEEA-γGlu-C18 diacid])FIEWLVRGK([AEEA-AEEA-γGlu-C18 diacid])GEGGEASELSTAALGRLSAELHELATLPRTETGSGSP-NH2 have Human GLP-1R potency [EC50 (pM)] greater than or equal to 7 pM? no (0)
